Could you please report measured Cytotoxicity (IC50) PC3 for the items listed next?
- System: PC3
- experimental-protocol: MTT cytotoxicity on various cancer cells (Table 1)
- Assay type: cell-based, human
- settings: human, 48 h
Where a SMILES comes first, the peptide text is derived from it. [ ]: non-standard residue; d: D form. pGlu = O=C1CC[C@@H](C(=O)O)N1
One number for each entry, in µg/mL.

compound	recorded-metric	observed-result
CC(C)C[C@H](NC(=O)CNC(=O)[C@@H](NC(=O)[C@H](CO)NC(=O)[C@H](CC(C)C)NC(=O)[C@H](CC(C)C)NC(=O)[C@H](C)NC(=O)[C@@H]1CCCN1C(=O)[C@H](CCCNC(=N)N)NC(=O)[C@H](C)NC(=O)[C@@H](N)CCC(=O)O)[C@@H](C)O)C(=O)N[C@@H](CCCNC(=N)N)C(=O)N1CCC[C@H]1C(=O)N[C@@H](CCCCN)C(=O)O [HS1006] (H-EARPALLSTGLRPK-OH; N-terminus and C-terminus assumed)	Cytotoxicity (IC50) PC3	15.2
CCNC(=O)[C@@H]1CCCN1C(=O)[C@@H](NC(=O)[C@H](Cc1ccccc1)NC(=O)[C@H](CCCNC(=N)N)NC(=O)[C@@H]1CCCN1C(=O)[C@H](C)NC(=O)[C@H](Cc1ccc(O)cc1)NC(=O)[C@H](CO)NC(=O)[C@H](Cc1c[nH]c2ccccc12)NC(=O)[C@H](Cc1c[nH]cn1)NC(=O)[C@@H]1CCC(=O)N1)[C@@H](C)CC [HS1003] ([pGlu]HWSYAPRFIP-NHEt; C-terminus assumed)	Cytotoxicity (IC50) PC3	24.05

Turning now to a further record.
Data request: Form field: reported Cytotoxicity (IC50) PC3 of CC(C)C[C@H](NC(=O)[C@H](C)NC(=O)[C@@H]1CCCN1C(=O)[C@H](CCCNC(=N)N)NC(=O)[C@H](C)NC(=O)[C@@H](N)CCC(=O)O)C(=O)N[C@@H](CC(C)C)C(=O)N[C@@H](CO)C(=O)N[C@H](C(=O)N[C@@H](CCCNC(=N)N)C(=O)N[C@@H](CC(C)C)C(=O)N[C@@H](CCCNC(=N)N)C(=O)N1CCC[C@H]1C(=O)O)[C@@H](C)O [HS1001] (H-EARPALLSTRLRP-OH; N-terminus and C-terminus assumed)
Data returned: 8.05
